- Experimental Protocol: Selectivity index, ratio of cytotoxic IC50 for HEK293 cells to EC50 for anti-parasitic activity against Trypanosoma brucei brucei 427 bloodstream parasites
- Assay type: toxicity, cell-based
- Condition Info: human, read-out: Ratio IC50/EC50
Metric Name: selectivity ratio

>>> observed_result("CCC(C)NC(=O)c1nc(-c2cccc(F)c2)cnc1N (stereo not given)")
102
>>> observed_result("Nc1ncc(-c2cccc(Cl)c2)nc1C(=O)NC1CCCC1")
340

* * *

- Assayed System: serum albumin (Homo sapiens, UniProt P02768)
- Sequence (P02768 whole entry): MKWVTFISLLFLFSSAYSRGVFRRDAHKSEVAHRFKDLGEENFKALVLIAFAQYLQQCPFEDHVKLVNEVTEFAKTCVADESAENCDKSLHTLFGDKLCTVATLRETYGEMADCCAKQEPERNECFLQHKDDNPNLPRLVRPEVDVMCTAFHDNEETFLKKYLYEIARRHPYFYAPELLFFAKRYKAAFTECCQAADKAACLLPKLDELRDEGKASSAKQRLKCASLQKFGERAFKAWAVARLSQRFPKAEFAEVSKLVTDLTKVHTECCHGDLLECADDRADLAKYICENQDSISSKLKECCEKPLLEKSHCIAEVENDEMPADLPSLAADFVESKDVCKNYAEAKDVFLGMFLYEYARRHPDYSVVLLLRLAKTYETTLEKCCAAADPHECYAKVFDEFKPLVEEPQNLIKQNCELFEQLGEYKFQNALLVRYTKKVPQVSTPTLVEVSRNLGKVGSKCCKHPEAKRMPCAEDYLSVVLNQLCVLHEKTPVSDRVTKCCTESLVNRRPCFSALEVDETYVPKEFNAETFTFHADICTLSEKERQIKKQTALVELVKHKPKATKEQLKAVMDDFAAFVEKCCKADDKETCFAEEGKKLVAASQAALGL
- Experimental Protocol: Binding affinity to human serum albumin by chromatographic method
- Format: ADME
- Condition Info: read-out: PB (converted)
Classification field: enter y for fraction unbound values not below 0.04, n for values below it.

>>> assigned_category("CCC(CC)NC(=O)c1nc(-c2ccccc2)cnc1N")
"y"
>>> assigned_category("N#Cc1ccccc1-c1cnc(N)c(C(=O)NC2CCCC2)n1")
"n"
>>> assigned_category("CC(C)(C)NC(=O)c1nc(-c2ccccc2)cnc1N")
"n"
>>> assigned_category("CCC(CC)NC(=O)c1nc(-c2ccc(F)cc2C#N)cnc1N")
"n"
>>> assigned_category("CCC(C)NC(=O)c1nc(-c2ccccc2C#N)cnc1N (configuration not stated)")
"y"
>>> assigned_category("CCC(CC)NC(=O)c1nc(-c2ccc(F)cc2)cnc1N")
"n"
>>> assigned_category("CCC(CC)NC(=O)c1nc(-c2cccc(C)c2)cnc1N")
"n"

// data source = ChEMBL document CHEMBL3603826
